Molecular target: Histone-arginine methyltransferase CARM1 (Homo sapiens)
Sequence (Q86X55 whole entry): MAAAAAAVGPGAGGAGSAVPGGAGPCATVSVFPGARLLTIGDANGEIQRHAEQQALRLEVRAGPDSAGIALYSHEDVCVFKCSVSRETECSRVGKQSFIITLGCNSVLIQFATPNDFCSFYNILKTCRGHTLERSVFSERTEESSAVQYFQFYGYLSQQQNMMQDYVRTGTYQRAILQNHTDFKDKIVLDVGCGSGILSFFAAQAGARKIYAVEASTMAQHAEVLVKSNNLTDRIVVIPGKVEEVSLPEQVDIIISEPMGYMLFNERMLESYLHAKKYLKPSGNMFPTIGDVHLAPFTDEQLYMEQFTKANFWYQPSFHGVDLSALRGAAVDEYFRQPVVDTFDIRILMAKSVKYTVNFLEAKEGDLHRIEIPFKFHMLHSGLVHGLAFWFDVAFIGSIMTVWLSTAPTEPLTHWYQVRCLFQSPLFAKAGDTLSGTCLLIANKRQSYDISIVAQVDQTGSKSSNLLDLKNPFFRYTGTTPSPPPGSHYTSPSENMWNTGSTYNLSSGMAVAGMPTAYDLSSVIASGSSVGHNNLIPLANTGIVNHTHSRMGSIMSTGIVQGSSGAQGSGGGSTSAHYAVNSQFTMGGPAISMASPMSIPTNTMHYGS
Assay: Inhibition of full-length Halo-tagged human CARM1 (1 to 608 residues) expressed in 293-F cells using [3H]-SAM and biotinylated histone peptides by scintillation proximity based radiometric assay
Assay type: cell-based
Settings: read-out: IC50
pIC50: −log10 of the molar value.
Quick reference for pIC50 among some compounds
assay.endpoint: pIC50

1. CNCCN1CCCC1
5.51
2. NCC(=O)NCCc1ccccc1
4.69
3. C[C@H](N)C(=O)NCc1cccnc1Oc1ccc(F)cc1F
5.72
4. CNCCNC1CCN(c2cccc(-c3ccnc(C)n3)c2)CC1
4.95
5. Cc1cc(OCCNCCN)ccc1C(C)C
4.78
6. Cc1cc(C)cc(Oc2ccc(CNC(=O)[C@H](C)N)cc2C)c1
7.30
7. CN(CCN)Cc1ccccc1
5.12
